EXPERIMENTAL_TARGET: Ephrin type-A receptor 4 (Homo sapiens) (UniProt P54764)
Sequence (P54764 whole entry): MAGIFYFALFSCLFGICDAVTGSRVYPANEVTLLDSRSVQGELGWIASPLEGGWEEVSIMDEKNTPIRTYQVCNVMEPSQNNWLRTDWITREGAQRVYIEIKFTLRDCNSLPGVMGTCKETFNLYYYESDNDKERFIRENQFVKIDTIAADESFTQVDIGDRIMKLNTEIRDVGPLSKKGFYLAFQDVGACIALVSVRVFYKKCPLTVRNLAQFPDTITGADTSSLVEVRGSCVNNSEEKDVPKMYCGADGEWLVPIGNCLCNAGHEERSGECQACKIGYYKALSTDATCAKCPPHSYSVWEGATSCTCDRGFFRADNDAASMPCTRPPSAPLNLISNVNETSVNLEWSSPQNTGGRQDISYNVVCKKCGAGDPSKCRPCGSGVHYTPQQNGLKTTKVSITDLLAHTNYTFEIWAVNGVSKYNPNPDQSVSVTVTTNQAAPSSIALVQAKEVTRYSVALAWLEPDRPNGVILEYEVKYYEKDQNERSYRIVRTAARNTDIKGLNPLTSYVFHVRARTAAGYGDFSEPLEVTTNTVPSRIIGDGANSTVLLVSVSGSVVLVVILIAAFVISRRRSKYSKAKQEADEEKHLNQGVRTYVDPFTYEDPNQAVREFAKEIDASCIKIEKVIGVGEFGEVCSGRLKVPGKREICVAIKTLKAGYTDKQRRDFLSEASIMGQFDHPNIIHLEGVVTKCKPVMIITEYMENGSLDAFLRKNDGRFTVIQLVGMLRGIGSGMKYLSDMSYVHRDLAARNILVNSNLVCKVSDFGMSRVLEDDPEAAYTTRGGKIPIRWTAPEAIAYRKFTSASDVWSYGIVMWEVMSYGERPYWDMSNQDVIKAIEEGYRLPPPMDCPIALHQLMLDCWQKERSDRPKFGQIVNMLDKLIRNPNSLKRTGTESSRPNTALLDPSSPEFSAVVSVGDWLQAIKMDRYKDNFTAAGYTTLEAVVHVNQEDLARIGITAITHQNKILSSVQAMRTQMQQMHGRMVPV
SETUP_CONDITIONS: at 1 µM
VALUE_KIND: residual activity (%)
Kindly answer with a numeric value in %, unit omitted.

Look over these answered cases.
CN(C)c1ccc(/C=C2\C(=O)Nc3ccccc32)cc1 = 115
Oc1c2ccccc2c2c3c(cccc13)N=N2 = 105
COc1ccc(CNc2nc(N(CCO)CCO)nc3c2ncn3C(C)C)cc1 = 110
Cn1cc(/C=C2\C(=O)Nc3ccc(S(N)(=O)=O)cc32)c2ccccc21 = 96
COc1cc2ncnc(Nc3ccc(O)c(Br)c3)c2cc1OC = 89

Now examine the next entry.
Note to self: residual activity recorded for c1ccc2c(-c3ccncc3)c[nH]c2c1 was 109

---

Entries and their measured residual activity follow.
EXPERIMENTAL_TARGET: Calcium/calmodulin-dependent protein kinase type II subunit gamma (Homo sapiens) (UniProt Q13555)
Sequence (Q13555 whole entry): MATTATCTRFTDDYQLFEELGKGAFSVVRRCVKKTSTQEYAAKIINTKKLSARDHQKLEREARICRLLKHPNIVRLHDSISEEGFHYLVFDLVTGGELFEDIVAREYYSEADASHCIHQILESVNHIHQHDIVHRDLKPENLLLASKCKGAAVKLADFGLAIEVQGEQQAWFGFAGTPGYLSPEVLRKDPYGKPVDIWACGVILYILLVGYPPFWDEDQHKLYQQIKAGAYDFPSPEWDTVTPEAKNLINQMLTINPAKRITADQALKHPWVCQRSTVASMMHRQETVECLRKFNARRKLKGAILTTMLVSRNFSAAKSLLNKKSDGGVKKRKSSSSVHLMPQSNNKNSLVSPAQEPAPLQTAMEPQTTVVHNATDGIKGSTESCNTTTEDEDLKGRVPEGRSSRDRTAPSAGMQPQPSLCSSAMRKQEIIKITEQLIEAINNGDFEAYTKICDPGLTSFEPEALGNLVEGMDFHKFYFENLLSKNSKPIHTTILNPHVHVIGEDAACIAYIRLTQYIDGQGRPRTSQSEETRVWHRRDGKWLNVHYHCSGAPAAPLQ
SETUP_CONDITIONS: at 10 µM
Give your result in % as a bare value.

Cc1cncc2cccc(S(=O)(=O)N3CCCN(C(=O)CN)C[C@H]3C)c12 = 64
C[C@@H](N)[C@H]1CC[C@H](C(=O)Nc2ccncc2)CC1 = 89
COc1ccc(S(=O)(=O)N(CCO)c2ccccc2CN(C)C/C=C/c2ccc(Cl)cc2)cc1 = 67
Oc1ccc(-c2nc(-c3ccc(F)cc3)c(-c3ccncc3)[nH]2)cc1 = 89
Cc1nc2cc3nc(-c4cccs4)cnc3cc2n1C = 84

Summary for this compound, CCN(CC)CCCCN1c2ccccc2Oc2ccc(Cl)cc21 : residual activity is 97

residual activity in this record for CC(C)n1cnc2c(NCc3ccccc3)nc(NCCCO)nc21 : 59

residual activity recorded for this compound, Ic1cccc(CSc2nnc(-c3ccncc3)o2)c1 , is 74

GET /value?item= c1ccc(-c2n[nH]cc2-c2ccnc3ccccc23)nc1 &field=residual activity returns 69

Sample Cc1cccc(-c2[nH]c(C(C)(C)C)nc2-c2ccc3c(c2)OCO3)n1 ; residual activity observed: 99

---

Each record here notes measured residual activity.
EXPERIMENTAL_TARGET: Tyrosine-protein kinase BTK (Homo sapiens)
SETUP_CONDITIONS: at 1 µM
// units = %; emit number, no label

Value of measured residual activity for the entry CN(C)c1ccc(/C=C2\C(=O)Nc3ccccc32)cc1 : 113

---

EXPERIMENTAL_TARGET: Serine/threonine-protein kinase SIK1 (Homo sapiens) (UniProt P57059)
SETUP_CONDITIONS: at 10 µM
VALUE_KIND: residual activity (%)
Response body: numeric value in %, unit text excluded.

Completed entries (count: 2):
O=C(Nc1cccc(Nc2cc(Nc3cccc(C(F)(F)F)c3)ncn2)c1)C1CC1 = 104
Cc1cncc2cccc(S(=O)(=O)N3CCCN(C(=O)CN)C[C@H]3C)c12 = 90

Consider the record given below.
Known value: Serine/threonine-protein kinase SIK1 (Homo sapiens) (UniProt P57059) residual activity of the compound COc1ccc(S(=O)(=O)N(CCO)c2ccccc2CN(C)C/C=C/c2ccc(Cl)cc2)cc1 equals 79

---

Form field: residual activity (one value per entry).
EXPERIMENTAL_TARGET: Vascular endothelial growth factor receptor 2 (Homo sapiens) (UniProt P35968)
Sequence (P35968 whole entry): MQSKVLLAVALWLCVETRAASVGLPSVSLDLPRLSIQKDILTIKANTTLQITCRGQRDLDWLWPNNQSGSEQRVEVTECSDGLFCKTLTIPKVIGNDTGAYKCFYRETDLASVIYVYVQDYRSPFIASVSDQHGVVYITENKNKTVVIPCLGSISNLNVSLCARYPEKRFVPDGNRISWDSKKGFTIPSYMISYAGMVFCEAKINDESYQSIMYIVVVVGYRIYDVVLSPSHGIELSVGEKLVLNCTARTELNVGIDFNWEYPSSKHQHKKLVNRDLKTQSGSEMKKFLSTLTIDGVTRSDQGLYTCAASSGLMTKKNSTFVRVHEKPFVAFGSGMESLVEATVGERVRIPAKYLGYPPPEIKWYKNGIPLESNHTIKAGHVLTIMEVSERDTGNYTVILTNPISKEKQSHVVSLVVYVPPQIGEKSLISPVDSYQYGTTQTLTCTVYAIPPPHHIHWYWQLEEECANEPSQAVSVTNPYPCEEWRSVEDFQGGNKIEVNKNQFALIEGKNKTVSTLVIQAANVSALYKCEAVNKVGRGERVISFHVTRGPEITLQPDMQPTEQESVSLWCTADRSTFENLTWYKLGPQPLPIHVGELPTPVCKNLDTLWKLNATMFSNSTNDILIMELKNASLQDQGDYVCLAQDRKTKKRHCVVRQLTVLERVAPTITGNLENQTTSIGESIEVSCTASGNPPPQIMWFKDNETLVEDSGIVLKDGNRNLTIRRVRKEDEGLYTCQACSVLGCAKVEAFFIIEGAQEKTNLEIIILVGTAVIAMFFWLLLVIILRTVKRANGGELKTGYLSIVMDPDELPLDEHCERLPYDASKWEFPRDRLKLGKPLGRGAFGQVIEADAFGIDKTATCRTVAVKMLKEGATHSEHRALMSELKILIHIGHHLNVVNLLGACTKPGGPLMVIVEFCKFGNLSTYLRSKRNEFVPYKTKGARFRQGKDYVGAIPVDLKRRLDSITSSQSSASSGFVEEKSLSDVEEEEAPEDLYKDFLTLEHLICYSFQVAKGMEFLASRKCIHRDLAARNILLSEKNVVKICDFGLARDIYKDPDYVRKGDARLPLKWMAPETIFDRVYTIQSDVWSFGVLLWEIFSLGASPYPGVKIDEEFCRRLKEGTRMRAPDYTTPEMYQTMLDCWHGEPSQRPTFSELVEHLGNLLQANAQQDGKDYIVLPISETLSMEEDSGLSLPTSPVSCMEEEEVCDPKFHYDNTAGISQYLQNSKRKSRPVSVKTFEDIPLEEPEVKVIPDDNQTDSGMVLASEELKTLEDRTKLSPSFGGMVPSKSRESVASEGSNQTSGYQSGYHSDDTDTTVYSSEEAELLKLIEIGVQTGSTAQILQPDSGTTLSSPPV
SETUP_CONDITIONS: at 10 µM
Value expressed in %; do not type the unit.

Ic1cccc(CSc2nnc(-c3ccncc3)o2)c1 = 65
COc1ccc(C(=O)Nc2sc3c(c2C(N)=O)CCCC3)cc1OC = 75
Cc1nc2cc3nc(-c4cccs4)cnc3cc2n1C = 5
Cn1cc(/C=C2\C(=O)Nc3ccc(S(N)(=O)=O)cc32)c2ccccc21 = 7

Short answer for COc1cc2ncnc(Nc3ccc(O)c(Br)c3)c2cc1OC : residual activity was 4

---

EXPERIMENTAL_TARGET: Serine/threonine-protein kinase mTOR (Homo sapiens)
SETUP_CONDITIONS: at 10 µM
residual activity values by entry
Please state the figure in %; there is no need to write the unit.

O=Nc1c(-c2c(O)[nH]c3ccccc23)[nH]c2ccccc12 = 98

Item O=C(Nc1cccc(Nc2nccc(Nc3cccc(C(F)(F)F)c3)n2)c1)C1CC1 was tested on Serine/threonine-protein kinase mTOR (Homo sapiens); the reported residual activity is 83

Field residual activity (Serine/threonine-protein kinase mTOR (Homo sapiens)), entry O=C1NC(=O)/C(=C/c2ccc3c(c2)OC(F)(F)O3)S1 : 90

Readout residual activity for O=c1c2ccccc2[nH]c(=S)n1CCN1CCC(=C(c2ccc(F)cc2)c2ccc(F)cc2)CC1 , test system Serine/threonine-protein kinase mTOR (Homo sapiens), was 85

Here c1ccc(-c2n[nH]c3c2oc2ccccc23)cc1 was tested on Serine/threonine-protein kinase mTOR (Homo sapiens), and its residual activity came to 85

The reported residual activity value, Serine/threonine-protein kinase mTOR (Homo sapiens), for Nc1cccc(-c2cc3c(Oc4cccc(O)c4)ncnc3[nH]2)c1 reads 83

Sample CC(C)n1cnc2c(NCc3ccccc3)nc(NCCCO)nc21 , system: Serine/threonine-protein kinase mTOR (Homo sapiens). Its residual activity is 114

---

EXPERIMENTAL_TARGET: Mitogen-activated protein kinase kinase kinase 7 (Homo sapiens) (UniProt O43318)
Sequence (whole entry): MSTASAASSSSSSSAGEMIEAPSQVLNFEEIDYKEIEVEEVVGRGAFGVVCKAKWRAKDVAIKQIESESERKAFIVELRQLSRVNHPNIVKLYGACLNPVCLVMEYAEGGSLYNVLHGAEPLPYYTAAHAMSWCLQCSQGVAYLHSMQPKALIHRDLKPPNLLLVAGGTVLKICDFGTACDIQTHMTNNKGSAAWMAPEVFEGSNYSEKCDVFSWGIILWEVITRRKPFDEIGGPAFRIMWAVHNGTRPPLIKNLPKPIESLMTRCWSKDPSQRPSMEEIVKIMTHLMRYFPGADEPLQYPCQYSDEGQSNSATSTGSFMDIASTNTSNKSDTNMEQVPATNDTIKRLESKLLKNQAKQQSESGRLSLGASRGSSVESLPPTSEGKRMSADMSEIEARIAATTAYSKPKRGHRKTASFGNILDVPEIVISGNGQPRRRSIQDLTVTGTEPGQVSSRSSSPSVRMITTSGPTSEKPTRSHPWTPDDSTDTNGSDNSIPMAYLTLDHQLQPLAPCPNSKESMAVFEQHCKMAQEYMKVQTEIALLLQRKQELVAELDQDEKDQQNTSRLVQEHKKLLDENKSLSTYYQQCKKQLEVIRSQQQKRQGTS
SETUP_CONDITIONS: at 1 µM
VALUE_KIND: residual activity (%)
Answer in %, number only, no unit symbol.

COc1cc2ncnc(Nc3ccc(O)c(Br)c3)c2cc1OC = 81
CC(C)n1cnc2/c(=N/c3cccc(Cl)c3)nc(NCCO)[nH]c21 = 77
Cc1nc(-c2ccccc2)c(-c2ccncc2)o1 = 103
Nc1n[nH]c2nnc(-c3c(-c4ccccc4)nn4ccccc34)cc12 = 90

# residual activity measured on Mitogen-activated protein kinase kinase kinase 7 (Homo sapiens) (UniProt O43318) for item Oc1ccc(-c2nc(-c3ccc(F)cc3)c(-c3ccncc3)[nH]2)cc1 = 104

The compound CC[n+]1c(/C=C/N(C)c2ccccc2)n(-c2ccccc2)c2ccc(-c3nc4ccccc4s3)cc21 , tested on Mitogen-activated protein kinase kinase kinase 7 (Homo sapiens) (UniProt O43318), showed residual activity of 100

---

Let's look at some compounds and their measured residual activity.
EXPERIMENTAL_TARGET: Serine/threonine-protein kinase TAO1 (Homo sapiens) (UniProt Q7L7X3)
Sequence (Q7L7X3 whole entry): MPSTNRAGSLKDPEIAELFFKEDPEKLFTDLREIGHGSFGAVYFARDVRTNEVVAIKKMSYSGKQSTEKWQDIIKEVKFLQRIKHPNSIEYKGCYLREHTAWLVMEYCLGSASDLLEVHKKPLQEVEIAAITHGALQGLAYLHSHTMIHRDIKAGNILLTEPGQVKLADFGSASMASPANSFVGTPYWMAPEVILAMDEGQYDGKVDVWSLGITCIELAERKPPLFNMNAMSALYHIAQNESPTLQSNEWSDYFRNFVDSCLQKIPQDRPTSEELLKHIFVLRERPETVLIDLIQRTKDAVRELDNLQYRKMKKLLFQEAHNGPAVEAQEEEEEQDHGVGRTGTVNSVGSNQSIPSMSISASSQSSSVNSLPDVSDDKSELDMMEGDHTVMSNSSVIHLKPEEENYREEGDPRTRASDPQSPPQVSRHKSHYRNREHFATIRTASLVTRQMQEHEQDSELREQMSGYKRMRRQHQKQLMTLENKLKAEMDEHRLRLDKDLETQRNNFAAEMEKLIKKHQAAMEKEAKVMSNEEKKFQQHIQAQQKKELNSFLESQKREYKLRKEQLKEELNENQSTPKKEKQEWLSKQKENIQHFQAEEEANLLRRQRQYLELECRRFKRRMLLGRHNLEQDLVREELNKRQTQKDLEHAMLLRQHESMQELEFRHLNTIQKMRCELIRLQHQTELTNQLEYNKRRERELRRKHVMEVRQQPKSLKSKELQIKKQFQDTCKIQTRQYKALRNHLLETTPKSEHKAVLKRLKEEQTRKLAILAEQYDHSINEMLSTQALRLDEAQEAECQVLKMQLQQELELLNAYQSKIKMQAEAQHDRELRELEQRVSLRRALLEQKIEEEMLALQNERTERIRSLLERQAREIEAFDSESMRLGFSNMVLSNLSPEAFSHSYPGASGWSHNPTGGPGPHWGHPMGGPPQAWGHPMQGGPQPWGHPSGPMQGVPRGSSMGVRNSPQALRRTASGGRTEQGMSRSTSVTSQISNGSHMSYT
SETUP_CONDITIONS: at 1 µM
Kindly provide the numeric value in % only, without the unit symbol.

Solved cases (5 shown):
CNc1cc2c(Nc3cccc(Br)c3)ncnc2cn1 = 100
O=C1NC(=O)/C(=C/c2ccc3c(c2)OC(F)(F)O3)S1 = 100
COc1ccc(OC)c2c(=S)c3ccccc3[nH]c12 = 82
O=C1NC(=O)c2cc(Nc3ccc(F)cc3)c(Nc3ccc(F)cc3)cc21 = 83
O=Nc1c(-c2c(O)[nH]c3ccccc23)[nH]c2ccccc12 = 83

Continue with the next compound.
Lab book: residual activity of O=C1Nc2ccc(Br)cc2/C1=C\c1cc2c([nH]1)CCCC2 noted as 104

---

EXPERIMENTAL_TARGET: Death-associated protein kinase 3 (Homo sapiens) (UniProt O43293)
Sequence (O43293 whole entry, looked up): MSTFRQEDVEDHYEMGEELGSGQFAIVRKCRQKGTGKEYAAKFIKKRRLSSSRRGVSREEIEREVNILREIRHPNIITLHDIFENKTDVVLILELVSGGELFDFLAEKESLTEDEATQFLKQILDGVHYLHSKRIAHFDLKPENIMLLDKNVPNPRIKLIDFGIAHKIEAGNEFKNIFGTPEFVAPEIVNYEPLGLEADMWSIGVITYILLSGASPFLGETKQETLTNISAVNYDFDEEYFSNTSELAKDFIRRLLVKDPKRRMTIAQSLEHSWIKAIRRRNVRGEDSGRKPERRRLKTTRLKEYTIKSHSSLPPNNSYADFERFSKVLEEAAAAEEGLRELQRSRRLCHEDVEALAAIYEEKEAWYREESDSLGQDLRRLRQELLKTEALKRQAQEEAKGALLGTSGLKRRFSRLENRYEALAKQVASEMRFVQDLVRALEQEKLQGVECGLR
SETUP_CONDITIONS: at 10 µM
residual activity values by entry
Only the number, expressed in %, is required.

Answered examples (2):
c1ccc(-c2n[nH]cc2-c2ccnc3ccccc23)nc1 = 96
Nc1n[nH]c2nnc(-c3c(-c4ccccc4)nn4ccccc34)cc12 = 88

# value of residual activity, Death-associated protein kinase 3 (Homo sapiens) (UniProt O43293), item O=C1NC(=O)/C(=C\c2ccc3nccnc3c2)S1 = 21

Measured on Death-associated protein kinase 3 (Homo sapiens) (UniProt O43293), CCN(CC)C(=O)c1ccc(Nc2nc(OCC3CCCCC3)c3nc[nH]c3n2)cc1 has a documented residual activity of 65

Fill in: Death-associated protein kinase 3 (Homo sapiens) (UniProt O43293) residual activity for COc1cccc(-c2cc(=O)c3ccccc3o2)c1N = 101

Log: Death-associated protein kinase 3 (Homo sapiens) (UniProt O43293), compound C[C@@H](N)[C@H]1CC[C@H](C(=O)Nc2ccncc2)CC1 , residual activity = 99
